# Subject Of Test: Gcr1 (UniProt P07261)
# Sequence: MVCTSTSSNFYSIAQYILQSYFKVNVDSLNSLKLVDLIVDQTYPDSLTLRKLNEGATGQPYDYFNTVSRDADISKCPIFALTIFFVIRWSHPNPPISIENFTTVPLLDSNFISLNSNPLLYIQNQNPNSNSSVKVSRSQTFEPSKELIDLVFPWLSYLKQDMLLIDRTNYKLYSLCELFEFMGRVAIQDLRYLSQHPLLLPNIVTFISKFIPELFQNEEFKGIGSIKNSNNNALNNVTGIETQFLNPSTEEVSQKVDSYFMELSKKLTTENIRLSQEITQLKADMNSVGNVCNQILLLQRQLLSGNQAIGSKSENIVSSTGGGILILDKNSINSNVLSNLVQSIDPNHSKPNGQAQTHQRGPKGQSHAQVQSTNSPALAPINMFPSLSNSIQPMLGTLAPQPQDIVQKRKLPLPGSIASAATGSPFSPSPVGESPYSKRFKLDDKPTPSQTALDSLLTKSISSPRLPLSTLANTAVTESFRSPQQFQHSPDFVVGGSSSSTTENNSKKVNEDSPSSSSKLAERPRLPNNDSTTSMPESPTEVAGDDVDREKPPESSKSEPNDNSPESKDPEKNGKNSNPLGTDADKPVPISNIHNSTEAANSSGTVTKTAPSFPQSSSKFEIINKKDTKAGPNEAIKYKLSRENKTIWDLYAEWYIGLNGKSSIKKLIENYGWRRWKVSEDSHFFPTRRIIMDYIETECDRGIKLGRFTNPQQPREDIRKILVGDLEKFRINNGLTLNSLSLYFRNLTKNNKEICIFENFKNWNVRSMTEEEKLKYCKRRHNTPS
# Assay Procedure: PBM E-score (8-mer binding enrichment) (E-score (-0.5 to 0.5)); higher = stronger / more preferred TF binding
# Assay Conditions: protein concentration: 100 nM; construct: GST-full length
Over roughly 33,000 sequences, “E-score (-0.5 to 0.5)” has its median near -0.011; the highest 2% begin near 0.28. What follows is part of a selection rich in the highest values, with near analogues and random picks from the rest.
Quick rule for you: PBM E-score at 0.1 or higher means True, lower means False.

| Residues | Subject Of Test | Label |
| --- | --- | --- |
| TGTTCCAA | Gcr1 (UniProt P07261) | True |
| GGATCCCA | Gcr1 (UniProt P07261) | True |
| CGCTCCCA | Gcr1 (UniProt P07261) | True |
| CGTTCCAA | Gcr1 (UniProt P07261) | False |
| TGATCCCA | Gcr1 (UniProt P07261) | False |
| AGTTCCAC | Gcr1 (UniProt P07261) | False |
| AGATCCCA | Gcr1 (UniProt P07261) | True |
| GGATCCCC | Gcr1 (UniProt P07261) | True |
| CGTTCCAC | Gcr1 (UniProt P07261) | False |
| AATACAAC | Gcr1 (UniProt P07261) | False |
| ATTACAGA | Gcr1 (UniProt P07261) | False |

* * *

# Subject Of Test: Gcr1 (UniProt P07261)
# Sequence: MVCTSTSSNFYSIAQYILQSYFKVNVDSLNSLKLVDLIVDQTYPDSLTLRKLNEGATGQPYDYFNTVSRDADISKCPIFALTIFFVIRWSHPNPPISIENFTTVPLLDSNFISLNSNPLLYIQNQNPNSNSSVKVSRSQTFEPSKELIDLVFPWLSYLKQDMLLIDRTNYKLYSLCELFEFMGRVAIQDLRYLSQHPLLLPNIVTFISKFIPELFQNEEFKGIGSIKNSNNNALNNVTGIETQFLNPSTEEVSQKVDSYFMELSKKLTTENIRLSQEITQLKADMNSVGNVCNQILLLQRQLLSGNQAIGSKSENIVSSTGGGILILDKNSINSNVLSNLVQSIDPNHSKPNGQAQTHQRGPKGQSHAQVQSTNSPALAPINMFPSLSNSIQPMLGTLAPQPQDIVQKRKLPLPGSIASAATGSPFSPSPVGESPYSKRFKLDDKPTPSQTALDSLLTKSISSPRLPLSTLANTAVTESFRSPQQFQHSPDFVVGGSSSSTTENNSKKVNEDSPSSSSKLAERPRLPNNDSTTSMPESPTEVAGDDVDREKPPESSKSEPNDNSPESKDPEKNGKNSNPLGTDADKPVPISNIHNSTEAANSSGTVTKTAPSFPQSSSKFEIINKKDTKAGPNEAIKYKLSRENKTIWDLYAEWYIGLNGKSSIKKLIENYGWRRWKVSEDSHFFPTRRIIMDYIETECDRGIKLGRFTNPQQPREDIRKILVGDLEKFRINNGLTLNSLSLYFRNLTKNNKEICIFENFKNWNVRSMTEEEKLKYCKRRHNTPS
# Assay Procedure: PBM E-score (8-mer binding enrichment) (E-score (-0.5 to 0.5)); higher = stronger / more preferred TF binding
# Assay Conditions: protein concentration: 100 nM; construct: GST-full length
Whole data set: some 33,000 sequences, median “E-score (-0.5 to 0.5)” near -0.011, cut for the highest 2% near 0.28. The sample holds the highest values, similar sequences and a random draw of the others, so the mix is not that of the screen.
Quick rule for you: PBM E-score at 0.2 or higher means t, lower means f.

| Residues | Subject Of Test | Label |
| --- | --- | --- |
| GTTCTCCA | Gcr1 (UniProt P07261) | f |
| CGGGGCCC | Gcr1 (UniProt P07261) | t |
| CGGATCCC | Gcr1 (UniProt P07261) | t |
| CGGATCCG | Gcr1 (UniProt P07261) | t |
| AACACCGT | Gcr1 (UniProt P07261) | f |
| CTTTACTC | Gcr1 (UniProt P07261) | f |
| GGGATCCA | Gcr1 (UniProt P07261) | t |
| CTATATTA | Gcr1 (UniProt P07261) | t |
| GGCATTTA | Gcr1 (UniProt P07261) | f |
| AACCTGTA | Gcr1 (UniProt P07261) | t |
| TATCTCGA | Gcr1 (UniProt P07261) | f |
| AAGTAGAA | Gcr1 (UniProt P07261) | f |
| CACAAGGC | Gcr1 (UniProt P07261) | f |
| CGTGGGCC | Gcr1 (UniProt P07261) | f |
| ATATATTA | Gcr1 (UniProt P07261) | f |
| CGGATCGC | Gcr1 (UniProt P07261) | f |
| TGGATCAA | Gcr1 (UniProt P07261) | f |
| CTCCAAGA | Gcr1 (UniProt P07261) | f |
| GAGATCCA | Gcr1 (UniProt P07261) | f |
| AGCTCTAA | Gcr1 (UniProt P07261) | f |
| AACGAGGG | Gcr1 (UniProt P07261) | f |

* * *

# Subject Of Test: Gcr1 (UniProt P07261)
# Sequence: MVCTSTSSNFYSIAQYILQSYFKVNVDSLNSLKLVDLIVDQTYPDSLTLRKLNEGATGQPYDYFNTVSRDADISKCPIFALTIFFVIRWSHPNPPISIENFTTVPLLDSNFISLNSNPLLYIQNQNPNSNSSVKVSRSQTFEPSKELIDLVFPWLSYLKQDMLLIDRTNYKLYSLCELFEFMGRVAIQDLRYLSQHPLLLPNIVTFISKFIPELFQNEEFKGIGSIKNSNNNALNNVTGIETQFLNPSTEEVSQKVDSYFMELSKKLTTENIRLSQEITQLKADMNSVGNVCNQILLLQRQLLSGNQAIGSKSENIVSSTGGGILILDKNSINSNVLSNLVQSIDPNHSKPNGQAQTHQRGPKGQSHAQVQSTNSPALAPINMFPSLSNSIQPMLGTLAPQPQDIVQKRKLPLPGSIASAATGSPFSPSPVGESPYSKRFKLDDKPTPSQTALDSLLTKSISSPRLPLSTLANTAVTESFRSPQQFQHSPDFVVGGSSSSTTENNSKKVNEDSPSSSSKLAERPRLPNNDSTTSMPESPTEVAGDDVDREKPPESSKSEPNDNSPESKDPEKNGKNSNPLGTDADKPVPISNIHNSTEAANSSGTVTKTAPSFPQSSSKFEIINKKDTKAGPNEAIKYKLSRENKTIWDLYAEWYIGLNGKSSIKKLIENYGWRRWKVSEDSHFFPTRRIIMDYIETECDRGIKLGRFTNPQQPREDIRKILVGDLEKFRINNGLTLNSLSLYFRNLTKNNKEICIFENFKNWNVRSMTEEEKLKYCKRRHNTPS
# Assay Procedure: PBM E-score (8-mer binding enrichment) (E-score (-0.5 to 0.5)); higher = stronger / more preferred TF binding
# Assay Conditions: protein concentration: 100 nM; construct: GST-full length
Over roughly 33,000 sequences, “E-score (-0.5 to 0.5)” has its median near -0.011; the highest 2% begin near 0.28. For the sample, the highest values were picked, then their nearest neighbours and some sequences at random.
Quick rule for you: PBM E-score at 0.2 or higher means Yes, lower means No.

| Residues | Label |
| --- | --- |
| AAGGAACG | No |
| TAATAGGA | Yes |
| GCGTCTCC | Yes |
| AATTAGGC | Yes |
| AATTAGGA | Yes |
| GCTACCAC | Yes |
| ACGTCCCC | No |
| TCGTCCCA | No |
| CCCTGGCA | No |
| GCGTCCCC | Yes |
| AGGCATCA | No |
| GATACCAC | Yes |
| GAGGAACA | No |
| CCGTCCCC | No |
| CAGGAACG | No |
| CGGGAACC | Yes |
| AACGCCTC | No |
| ATTTAGGA | Yes |
| GACGCCTC | Yes |
| CACCTTAG | No |
| AATTAGGG | No |
| CACTGGAG | No |
| AACTGGAG | No |
| ATCTGGAA | Yes |
| GAGGAACC | Yes |
| CCCCTCAA | No |
| CGGCATCA | Yes |
| CGGCATAC | No |
| AAATAGGA | Yes |
| GCGTCCTA | Yes |
| AGGCATCG | No |
| TATTGGGA | No |
| ACGTCTCC | No |
| AAACCCGG | No |
| TCCTGGAA | No |
| AAGGGGTC | No |
| ATACTGCA | No |
| CCGTCCTA | No |
| AAGGAACT | No |
| CCAAAATC | No |
| CAGGAACC | Yes |
| ACGTCCCA | No |
| ACGTCCTA | No |
